Collected percentage inhibition of LKB1 values appear next to each entry.
Target: LKB1 (Homo sapiens (Human))
Sequence (Q15831 whole entry, species assumed): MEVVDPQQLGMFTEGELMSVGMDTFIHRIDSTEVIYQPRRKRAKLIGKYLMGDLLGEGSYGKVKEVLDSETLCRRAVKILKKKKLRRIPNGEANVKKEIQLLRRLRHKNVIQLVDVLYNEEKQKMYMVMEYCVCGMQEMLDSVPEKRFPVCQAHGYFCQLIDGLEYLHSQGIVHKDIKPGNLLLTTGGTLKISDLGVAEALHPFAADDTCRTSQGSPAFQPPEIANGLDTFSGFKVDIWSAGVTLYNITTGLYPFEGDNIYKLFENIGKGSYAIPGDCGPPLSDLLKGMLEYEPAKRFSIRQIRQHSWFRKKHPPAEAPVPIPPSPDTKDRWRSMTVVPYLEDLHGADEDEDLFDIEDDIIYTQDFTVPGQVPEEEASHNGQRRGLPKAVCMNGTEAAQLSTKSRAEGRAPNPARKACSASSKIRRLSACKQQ
Sequence (Q7RTN6 whole entry partner, species assumed): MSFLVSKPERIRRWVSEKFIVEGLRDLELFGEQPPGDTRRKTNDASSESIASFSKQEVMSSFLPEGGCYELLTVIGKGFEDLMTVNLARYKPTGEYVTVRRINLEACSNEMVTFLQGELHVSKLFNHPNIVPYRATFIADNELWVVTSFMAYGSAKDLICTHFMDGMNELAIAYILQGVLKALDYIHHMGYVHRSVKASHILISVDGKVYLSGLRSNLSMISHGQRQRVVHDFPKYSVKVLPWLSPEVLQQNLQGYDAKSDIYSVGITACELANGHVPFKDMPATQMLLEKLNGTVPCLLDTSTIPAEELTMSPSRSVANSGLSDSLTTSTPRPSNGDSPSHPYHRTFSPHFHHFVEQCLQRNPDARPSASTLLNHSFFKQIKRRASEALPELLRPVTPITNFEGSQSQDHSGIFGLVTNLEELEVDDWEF
Sequence (Q9Y376 whole entry partner, species assumed): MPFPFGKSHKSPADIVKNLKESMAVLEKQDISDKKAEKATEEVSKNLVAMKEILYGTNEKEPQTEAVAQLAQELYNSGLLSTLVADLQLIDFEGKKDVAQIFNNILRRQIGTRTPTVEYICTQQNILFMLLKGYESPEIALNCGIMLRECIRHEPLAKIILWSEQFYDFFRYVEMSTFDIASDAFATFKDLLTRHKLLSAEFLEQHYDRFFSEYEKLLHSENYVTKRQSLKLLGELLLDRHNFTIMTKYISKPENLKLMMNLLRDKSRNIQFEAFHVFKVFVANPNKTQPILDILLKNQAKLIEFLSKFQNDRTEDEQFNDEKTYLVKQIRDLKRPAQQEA
Assay: LKB1 kinase selectivity assay
Assay type: biochemical
Conditions: 1 μM inhibitor concentration
Numeric answer only, unit percentage assumed.

Look up percentage inhibition of LKB1 for this molecule: c1cc2[nH]nc3c2c(n1)N(C1CCCC1)CCC3 [Example 23]
16

---

Biological target: UniProt:Q9NWZ3
Sequence (Q9NWZ3 whole entry, species assumed): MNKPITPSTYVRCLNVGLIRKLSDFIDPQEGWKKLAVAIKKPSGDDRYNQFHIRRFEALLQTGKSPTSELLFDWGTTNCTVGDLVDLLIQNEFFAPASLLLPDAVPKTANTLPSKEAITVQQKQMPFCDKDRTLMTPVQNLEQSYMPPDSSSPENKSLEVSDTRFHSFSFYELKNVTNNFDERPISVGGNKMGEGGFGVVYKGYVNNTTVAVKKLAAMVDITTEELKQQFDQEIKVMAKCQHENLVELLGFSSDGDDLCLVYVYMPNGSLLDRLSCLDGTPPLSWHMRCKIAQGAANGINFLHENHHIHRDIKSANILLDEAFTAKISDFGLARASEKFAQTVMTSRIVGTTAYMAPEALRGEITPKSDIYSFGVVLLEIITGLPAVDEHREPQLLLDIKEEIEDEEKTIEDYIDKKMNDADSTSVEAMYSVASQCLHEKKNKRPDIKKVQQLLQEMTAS
Experiment: IRAK4 kinase selectivity assay
Format: biochemical
Settings: 1 μM inhibitor concentration
endpointLabel: percentage inhibition of IRAK4 (percentage)
Unit percentage implied. Number only.

c1cc2[nH]nc3c2c(n1)N(C1CCOCC1)CCC3 [Example 29] | 15
CC(C)n1ncc2c1CN(C1CCN(C)CC1)c1nccc3[nH]nc-2c13 [Example 68] | 14

// returns reported percentage inhibition of IRAK4 for input c1cc2[nH]nc3c2c(n1)N(C1CCCC1)CCC3 [Example 23]
0

Returns the measured percentage inhibition of IRAK4 for the input molecule. Input: CN1CCC(N2Cc3ccccc3-c3n[nH]c4ccnc2c34)CC1 [Example 55]
9

Give the measured percentage inhibition of IRAK4 of c1cc2[nH]nc3c2c(n1)N(C1CCC1)CCC3 [Example 22] .
13

---

Target: EF2K (Homo sapiens (Human), UniProt O00418)
Test: EF2K kinase selectivity assay
Type: biochemical
Conditions: 1 μM inhibitor concentration
endpointLabel: percentage inhibition of EF2K (percentage)
Your answer is read as percentage, so omit the unit and give the number.

Answered cases to consult:
CN1CCC(N2Cc3ccccc3-c3n[nH]c4ccnc2c34)CC1 | 1
CC(C)n1ncc2c1CN(C1CCN(C)CC1)c1nccc3[nH]nc-2c13 | 1
c1cc2[nH]nc3c2c(n1)N(C1CCCC1)CCC3 | 0
c1cc2[nH]nc3c2c(n1)N(C1CCC1)CCC3 | 0

Return reported percentage inhibition of EF2K; argument: `c1cc2[nH]nc3c2c(n1)N(C1CCOCC1)CCC3`
0

---

Biological target: UniProtKB O60674
Sequence (O60674 whole entry): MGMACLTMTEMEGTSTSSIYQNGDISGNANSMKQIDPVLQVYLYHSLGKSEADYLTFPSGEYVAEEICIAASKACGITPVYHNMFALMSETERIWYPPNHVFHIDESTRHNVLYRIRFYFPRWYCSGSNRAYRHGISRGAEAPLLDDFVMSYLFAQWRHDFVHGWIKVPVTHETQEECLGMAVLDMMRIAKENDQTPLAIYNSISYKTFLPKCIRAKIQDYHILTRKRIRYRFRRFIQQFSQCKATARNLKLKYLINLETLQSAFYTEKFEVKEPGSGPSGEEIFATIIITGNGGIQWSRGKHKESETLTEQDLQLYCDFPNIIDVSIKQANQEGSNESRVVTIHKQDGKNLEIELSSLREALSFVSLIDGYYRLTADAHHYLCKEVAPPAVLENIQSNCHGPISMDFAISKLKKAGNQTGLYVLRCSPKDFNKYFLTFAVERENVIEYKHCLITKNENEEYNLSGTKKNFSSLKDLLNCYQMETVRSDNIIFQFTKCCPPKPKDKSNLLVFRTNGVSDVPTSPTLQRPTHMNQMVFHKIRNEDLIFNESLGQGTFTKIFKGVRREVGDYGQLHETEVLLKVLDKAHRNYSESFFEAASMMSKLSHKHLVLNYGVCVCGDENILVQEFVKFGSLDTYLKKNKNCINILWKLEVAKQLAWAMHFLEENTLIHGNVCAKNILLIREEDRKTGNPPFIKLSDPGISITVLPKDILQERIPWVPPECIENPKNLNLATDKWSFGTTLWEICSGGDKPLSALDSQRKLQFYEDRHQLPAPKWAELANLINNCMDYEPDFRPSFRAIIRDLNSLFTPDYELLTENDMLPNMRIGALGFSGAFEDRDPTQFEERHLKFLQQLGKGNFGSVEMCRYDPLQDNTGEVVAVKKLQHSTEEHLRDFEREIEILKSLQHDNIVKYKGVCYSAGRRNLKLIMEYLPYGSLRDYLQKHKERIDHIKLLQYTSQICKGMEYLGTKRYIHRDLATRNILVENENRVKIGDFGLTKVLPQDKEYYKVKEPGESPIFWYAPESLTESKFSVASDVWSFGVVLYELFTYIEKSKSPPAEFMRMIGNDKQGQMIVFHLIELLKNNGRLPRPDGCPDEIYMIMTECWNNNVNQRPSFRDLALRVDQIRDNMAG
Test: LANCE Kinase Assay (JAK2_IC50 selectivity assay)
Assay type: biochemical
pIC50: recorded values
Convention used: pIC50 is expressed as -log10 of the molar concentration.

Consider the following illustrative entries.
CC(C)n1ncc2c1CN(C1CCN(C)CC1)c1nccc3[nH]nc-2c13 | 5.20
c1cc2[nH]nc3c2c(n1)N(C1CCC1)CCC3 | 5.08
CC(C)n1cc2c(n1)CN(C1CCN(C)CC1)c1nccc3[nH]nc-2c13 | 5.34

I have this compound here, `CC(C)N1CCC(N2Cc3ccccc3-c3n[nH]c4ccnc2c34)CC1` , and I need its recorded pIC50.
5.32

---

Biological target: MINK1 (Homo sapiens (Human), UniProt Q8N4C8)
Sequence (Q8N4C8 whole entry, species assumed): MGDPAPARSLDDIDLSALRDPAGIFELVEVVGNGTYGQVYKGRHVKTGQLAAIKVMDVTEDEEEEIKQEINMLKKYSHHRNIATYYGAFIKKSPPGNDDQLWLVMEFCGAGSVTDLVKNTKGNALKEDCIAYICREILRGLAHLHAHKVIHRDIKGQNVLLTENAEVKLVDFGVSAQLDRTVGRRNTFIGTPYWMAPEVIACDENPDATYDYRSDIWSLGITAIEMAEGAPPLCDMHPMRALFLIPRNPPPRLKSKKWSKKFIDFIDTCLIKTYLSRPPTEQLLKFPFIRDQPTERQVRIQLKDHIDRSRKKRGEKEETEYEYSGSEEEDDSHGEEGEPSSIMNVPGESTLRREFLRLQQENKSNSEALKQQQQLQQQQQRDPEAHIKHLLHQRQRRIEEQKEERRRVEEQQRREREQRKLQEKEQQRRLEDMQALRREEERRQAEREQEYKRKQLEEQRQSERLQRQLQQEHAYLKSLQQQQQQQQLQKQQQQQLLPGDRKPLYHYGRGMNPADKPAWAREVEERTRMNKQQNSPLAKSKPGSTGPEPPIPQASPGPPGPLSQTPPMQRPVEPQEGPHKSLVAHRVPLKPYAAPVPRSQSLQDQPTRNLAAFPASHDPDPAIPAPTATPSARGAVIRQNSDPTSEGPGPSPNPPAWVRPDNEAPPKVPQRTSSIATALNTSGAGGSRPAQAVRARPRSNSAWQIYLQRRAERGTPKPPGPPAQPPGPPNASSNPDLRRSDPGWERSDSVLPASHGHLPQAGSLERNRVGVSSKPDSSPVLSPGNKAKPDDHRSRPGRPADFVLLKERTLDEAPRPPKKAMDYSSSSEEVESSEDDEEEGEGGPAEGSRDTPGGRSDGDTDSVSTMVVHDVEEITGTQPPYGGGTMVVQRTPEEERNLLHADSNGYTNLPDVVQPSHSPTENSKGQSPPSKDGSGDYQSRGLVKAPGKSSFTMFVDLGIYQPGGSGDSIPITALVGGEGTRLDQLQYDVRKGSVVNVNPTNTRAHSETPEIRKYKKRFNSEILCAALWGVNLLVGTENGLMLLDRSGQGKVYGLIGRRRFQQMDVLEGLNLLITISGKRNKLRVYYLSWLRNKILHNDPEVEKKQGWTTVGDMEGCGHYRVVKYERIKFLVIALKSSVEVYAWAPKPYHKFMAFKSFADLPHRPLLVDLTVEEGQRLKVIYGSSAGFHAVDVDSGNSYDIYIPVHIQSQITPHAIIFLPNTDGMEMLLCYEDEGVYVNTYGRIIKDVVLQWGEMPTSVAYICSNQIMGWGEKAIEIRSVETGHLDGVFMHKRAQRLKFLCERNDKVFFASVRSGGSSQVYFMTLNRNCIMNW
Test: MINK1 kinase selectivity assay
Assay type: biochemical
Conditions: 1 μM inhibitor concentration
endpointLabel: percentage inhibition of MINK1
Respond with the figure and its unit, in that order.

CN1CCC(N2Cc3ccccc3-c3n[nH]c4ccnc2c34)CC1 | 12 percentage
CC(C)n1ncc2c1CN(C1CCN(C)CC1)c1nccc3[nH]nc-2c13 | 7 percentage
c1cc2[nH]nc3c2c(n1)N(C1CCC1)CCC3 | 0 percentage

Kindly consider the entry below.
Look up percentage inhibition of MINK1 for this compound: `c1cc2[nH]nc3c2c(n1)N(C1CCCC1)CCC3`
0 percentage

---

Entries and their percentage inhibition of CAMK1
Molecular target: UniProt:Q14012
Test: CAMK1 kinase selectivity assay
Type: biochemical
Details: 1 μM inhibitor concentration
Give just the numeric value; percentage need not be written.

Some compounds with recorded percentage inhibition of CAMK1:
c1cc2[nH]nc3c2c(n1)N(C1CCC1)CCC3 [Example 22] | 0
c1cc2[nH]nc3c2c(n1)N(C1CCOCC1)CCC3 [Example 29] | 0

Now consider a different compound.
Value wanted: percentage inhibition of CAMK1 (UniProt:Q14012) of entry CN1CCC(N2Cc3ccccc3-c3n[nH]c4ccnc2c34)CC1 [Example 55]
25

---

Reported values of percentage inhibition of LKB1 for individual entries
Molecular target: LKB1 (Homo sapiens (Human))
Experiment: LKB1 kinase selectivity assay
Type: biochemical
Conditions: 1 μM inhibitor concentration
Give the quantity in percentage, number only.

Some solved entries appear below for comparison.
CC(C)n1ncc2c1CN(C1CCN(C)CC1)c1nccc3[nH]nc-2c13 | 0
CN1CCC(N2Cc3ccccc3-c3n[nH]c4ccnc2c34)CC1 | 0
c1cc2[nH]nc3c2c(n1)N(C1CCC1)CCC3 | 20

# percentage inhibition of LKB1 lookup, item `c1cc2[nH]nc3c2c(n1)N(C1CCOCC1)CCC3`
6
